Provide the reported inhibition of each item.
organism: Homo sapiens; assay: Inhibition of glutathione S-transferase (unknown origin) using CDNB as substrate at 50 uM by spectrophotometric analysis relative to control
Answer with a number only, understood to be in %.

Prompt line: Which inhibition reading was recorded for the molecule O=C(O)C(Cc1ccc(Cl)cc1)Cn1c(-c2ccc(Cl)s2)nc2ccc(-c3ccccc3-c3nn[nH]n3)cc2c1=O (stereo not drawn) ?
Response line: 98.8

Prompt line: Okay, and COC(=O)c1ccccc1-c1ccc2nc(-c3ccc(Cl)s3)n(Cc3ccc(Cl)cc3)c(=O)c2c1 ?
Response line: 24.8

Prompt line: Okay, and O=C(O)c1ccccc1-c1ccc2nc(-c3ccc(Cl)s3)n(Cc3ccc(Cl)cc3)c(=O)c2c1 ?
Response line: 78.7

Prompt line: Okay, and CCOC(=O)CCn1c(-c2ccc(Cl)s2)nc2ccc(-c3ccccc3-c3nn[nH]n3)cc2c1=O ?
Response line: 87.5

Prompt line: Okay, and Cn1nccc1-c1nc2ccc(-c3ccccc3-c3nn[nH]n3)cc2c(=O)n1Cc1ccc(Cl)cc1 ?
Response line: 65.3

Prompt line: Okay, and O=C(O)c1cc(-c2ccc3nc(-c4ccc(Cl)s4)n(Cc4ccc(Cl)cc4)c(=O)c3c2)ccc1F ?
Response line: 54.4

Prompt line: Okay, and O=C(O)CCn1c(-c2ccc(Cl)s2)nc2ccc(-c3ccccc3-c3nn[nH]n3)cc2c1=O ?
Response line: 87.3

Prompt line: Okay, and O=C(O)CCCn1c(-c2ccc(Cl)s2)nc2ccc(-c3ccccc3-c3nn[nH]n3)cc2c1=O ?
Response line: 76.6
